- method.notes: photoluminescence quantum yield (fraction); solvent given as SMILES
- measurement.parameters: in O=P(c1ccccc1)(c1ccccc1)c1ccccc1Oc1ccccc1P(=O)(c1ccccc1)c1ccccc1

chemical.structure: c1ccc(-c2nnc(-c3cc(-c4nnc(-c5ccccc5)o4)c(-n4c5ccccc5c5ccccc54)cc3-n3c4ccccc4c4ccccc43)o2)cc1
photoluminescence quantum yield: 0.581
--
chemical.structure: CC1(C)c2cc(-n3c4ccccc4c4ccccc43)ccc2N(c2ccc(-c3cc(-c4ccccc4)nc(-c4ccccc4)n3)cc2)c2ccc(-n3c4ccccc4c4ccccc43)cc21
photoluminescence quantum yield: 0.81
--
chemical.structure: CC1(C)c2ccccc2N(c2ccc3c(c2)S(=O)(=O)c2cc(N4c5ccccc5C(C)(C)c5ccccc54)ccc2C3(C)C)c2ccccc21
photoluminescence quantum yield: 0.62
